target: Tubulin (Homo sapiens) (UniProt P68371+Q9H4B7+P0DPH7+P68366+Q13509+Q71U36+P04350+Q3ZCM7+P07437+P68363+Q9BQE3+Q6PEY2+Q13885+Q9BVA1+Q9BUF5); assay: Binding affinity to microtubules, activity expressed as ID50 of compound/ID50 of paclitaxel; assay type: protein-complex assay
property.name: ID50 ratio

| query.smiles | measured.value |
| --- | --- |
| CC(=O)O[C@H]1C(=O)[C@]2(C)[C@@H](OC(=O)c3ccc(C(=[N+]=[N-])C(F)(F)F)cc3)C[C@H]3OC[C@@]3(OC(C)=O)[C@H]2[C@H](OC(=O)c2ccccc2)[C@]2(O)C[C@H](OC(=O)[C@H](O)[C@@H](NC(=O)c3ccccc3)c3ccccc3)C(C)=C1C2(C)C | 3.4 |
